# study-target: S1P5 receptors (Homo sapiens, UniProt Q9H228)
# Sequence (Q9H228 whole entry): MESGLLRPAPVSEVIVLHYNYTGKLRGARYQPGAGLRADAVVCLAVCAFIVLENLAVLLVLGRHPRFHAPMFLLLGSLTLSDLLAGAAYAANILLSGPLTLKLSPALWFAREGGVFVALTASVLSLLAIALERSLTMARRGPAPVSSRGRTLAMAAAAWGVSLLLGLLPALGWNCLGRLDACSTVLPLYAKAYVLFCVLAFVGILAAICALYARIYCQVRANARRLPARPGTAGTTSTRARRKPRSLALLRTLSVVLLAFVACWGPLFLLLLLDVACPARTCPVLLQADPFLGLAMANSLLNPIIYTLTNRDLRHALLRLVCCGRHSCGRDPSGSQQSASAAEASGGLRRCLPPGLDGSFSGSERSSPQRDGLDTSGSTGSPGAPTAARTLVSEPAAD
# experimental-details: [35S]-GTPγS binding assay with CHO-S1P5 receptor membranes
# recorded-conditions: membranes of CHO cells expressing recombinant S1P5 receptors; measure of S1P5 agonism
pEC50: −log10 of the molar value. Structures can show the parent of a compound that is named as a salt.
readout-kind: pEC50

{"molecule": "O=C(O)C1CCN(Cc2ccc(N3CC(c4c(Cl)cccc4Cl)C3)cc2)CC1", "study-target": "S1P5 receptors (Homo sapiens, UniProt Q9H228)", "pEC50": "7.00 to 8.00"}
{"molecule": "O=C(O)C1CCN(C2CCc3cc(C4CN(c5c(Cl)cccc5Cl)C4)ccc32)C1 (centres unmarked)", "study-target": "S1P5 receptors (Homo sapiens, UniProt Q9H228)", "pEC50": "≥ 8.00"}
{"molecule": "Cc1cc(C2CN(c3c(Cl)cccc3Cl)C2)cc(C)c1CN1CCC(C)(C(=O)O)CC1 [Compound 90, formic acid salt]", "study-target": "S1P5 receptors (Homo sapiens, UniProt Q9H228)", "pEC50": "≥ 8.00"}
{"molecule": "O=C(O)C1CN(Cc2ccc(C3CN(c4c(Cl)cccc4Cl)C3)cc2)C1", "study-target": "S1P5 receptors (Homo sapiens, UniProt Q9H228)", "pEC50": "≥ 8.00"}
{"molecule": "Cc1cc(C2CN(c3c(C)cccc3C#N)C2)cc(C)c1CN1CCC(C(=O)O)CC1", "study-target": "S1P5 receptors (Homo sapiens, UniProt Q9H228)", "pEC50": "≥ 8.00"}

Q. Note pEC50 for the molecule shown: Cc1cc(C2CN(c3c(Cl)cccc3Cl)C2)ncc1CN1CCC(C(=O)O)CC1
A. 6.00 to 7.00

Q. Write down pEC50 measured for item Cc1cc(C2CN(c3c(Cl)cccc3Cl)C2)ccc1C(C)N1CCC(C(=O)O)CC1 (single isomer, unassigned) [Compound 16b]
A. ≥ 8.00

Q. Give pEC50 for O=C(O)C1CCN(Cc2ccc(C3CN(c4c(Cl)cccc4Cl)C3)c(F)c2)CC1
A. ≥ 8.00

###

In this section, each of the compounds is paired with its reported EC50.
# study-target: S1P5 receptors (Homo sapiens, UniProt Q9H228)
# experimental-details: [35S]-GTPγS binding assay with CHO-S1P5 receptor membranes
# recorded-conditions: membranes of CHO cells expressing recombinant S1P5 receptors; measure of S1P5 agonism

Check out these entries, answers already filled in.
{"compound": "O=C(O)C1CCN(Cc2ccc(C3CN(c4ccccc4)C3)cc2)CC1", "readout-kind": "EC50", "endpoint-result": "1000 to 10000 nM"}
{"compound": "Cc1cc(C2CN(c3c(C)cccc3C3CC3)C2)cc(C)c1CN1CCC(C(=O)O)CC1", "readout-kind": "EC50", "endpoint-result": "≤ 10 nM"}
{"compound": "O=C(O)C1CCN(C2CCc3cc(N4CC(c5c(F)cccc5F)C4)ccc32)CC1 (single isomer, unassigned) [Compound 9b]", "readout-kind": "EC50", "endpoint-result": "100 to 1000 nM"}
{"compound": "Cc1cc(CN2CCC(C(=O)O)CC2)cc(C)c1N1CC(F)(c2c(Cl)cccc2Cl)C1", "readout-kind": "EC50", "endpoint-result": "10 to 100 nM"}
{"compound": "O=C(O)C1CCN(Cc2ccc(C3CN(c4c(Cl)cccc4Cl)C3)nc2)CC1", "readout-kind": "EC50", "endpoint-result": "10 to 100 nM"}
{"compound": "Cc1cc(C2CN(c3ccc(C4CC4)cc3)C2)cc(C)c1CN1CCC(C(=O)O)CC1", "readout-kind": "EC50", "endpoint-result": "1000 to 10000 nM"}

Q. Identify measured EC50 associated with O=C(O)C1CCN(C2CCc3cc(C4CN(c5ccccc5F)C4)ccc32)CC1 (single isomer, unassigned) [Compound 4b]
A. 1000 to 10000 nM

Q. Let me know recorded EC50 for Cc1cc(C2CN(c3cccc4ccccc34)C2)cc(C)c1CN1CCC(C(=O)O)CC1 , thanks.
A. 100 to 1000 nM

###

# study-target: S1P5 receptors (Homo sapiens, UniProt Q9H228)
# experimental-details: [35S]-GTPγS binding assay with CHO-S1P5 receptor membranes
# recorded-conditions: membranes of CHO cells expressing recombinant S1P5 receptors; measure of S1P5 agonism
pEC50: −log10 of the molar value. Where a name gives a salt, the structure may show the parent alone.
Measured pEC50, listed per entry for reference.

{"compound": "CC1(C(=O)O)CCN(Cc2ccc(C3CN(c4c(Cl)cccc4Cl)C3)cc2)CC1 [Compound 89, formic acid salt]", "readout-kind": "pEC50", "endpoint-result": "7.00 to 8.00"}
{"compound": "Cc1cc(N2CC(c3c(Cl)cccc3Cl)C2)c(C)cc1CN1CCC(C(=O)O)CC1", "readout-kind": "pEC50", "endpoint-result": "≥ 8.00"}
{"compound": "O=C(O)C1CCN(C2CCc3cc(N4CC(c5ccccc5F)C4)ccc32)CC1 (single isomer, unassigned) [Compound 10a]", "readout-kind": "pEC50", "endpoint-result": "7.00 to 8.00"}
{"compound": "O=C(O)[C@H]1CCN(Cc2ccc(C3CN(c4c(Cl)cccc4Cl)C3)cc2)C1 [Compound 12a]", "readout-kind": "pEC50", "endpoint-result": "7.00 to 8.00"}
{"compound": "Cc1cc(C2CN(c3c(Cl)cccc3Cl)C2)ccc1C(C)N1CCC(C(=O)O)CC1 (single isomer, unassigned) [Compound 16a]", "readout-kind": "pEC50", "endpoint-result": "7.00 to 8.00"}

Q. Give the reported pEC50 for this compound. O=C(O)C1CCN(Cc2ccc(C3CN(c4c(Cl)cccc4Cl)C3)cc2C2CC2)CC1
A. ≥ 8.00

Q. Report pEC50 for O=C(O)C1CCN(C2CCc3cc(C4CN(c5cccc(F)c5)C4)ccc32)CC1 (single isomer, unassigned) [Compound 3b]
A. 5.00 to 6.00

###

# study-target: S1P5 receptors (Homo sapiens, UniProt Q9H228)
# experimental-details: [35S]-GTPγS binding assay with CHO-S1P5 receptor membranes
# recorded-conditions: membranes of CHO cells expressing recombinant S1P5 receptors; measure of S1P5 agonism
pEC50: −log10 of the molar value.
# pEC50 annotations

{"compound": "O=C(O)C1CN(C2CCc3cc(C4CN(c5cccc(F)c5)C4)ccc32)C1 (single isomer, unassigned) [Compound 8b]", "study-target": "S1P5 receptors (Homo sapiens, UniProt Q9H228)", "pEC50": "6.00 to 7.00"}
{"compound": "Cc1cc(C2CN(c3c(Cl)cccc3Cl)C2)cc(C)c1CN1CCC(C(=O)O)CC1(C)C (stereo not shown)", "study-target": "S1P5 receptors (Homo sapiens, UniProt Q9H228)", "pEC50": "7.00 to 8.00"}
{"compound": "Cc1cc(N2CC(F)(c3c(Cl)cccc3Cl)C2)cc(C)c1CN1CCC(C(=O)O)CC1", "study-target": "S1P5 receptors (Homo sapiens, UniProt Q9H228)", "pEC50": "7.00 to 8.00"}

Q. Annotate the compound Cc1cc(C2CN(c3c(Cl)cccc3Cl)C2)cc(C)c1CN1CCC(C(=O)O)C(F)C1 (stereo not shown) with its measured pEC50.
A. ≥ 8.00

###

# study-target: S1P5 receptors (Homo sapiens, UniProt Q9H228)
# experimental-details: [35S]-GTPγS binding assay with CHO-S1P5 receptor membranes
# recorded-conditions: membranes of CHO cells expressing recombinant S1P5 receptors; measure of S1P5 agonism
readout-kind: EC50

A selection of reference data follows.
{"compound": "Cc1cc(C2CN(c3c(Cl)cccc3Cl)C2)cc(C#N)c1CN1CCC(C(=O)O)CC1 [Compound 58]", "EC50": "10 to 100 nM"}
{"compound": "O=C(O)C1CCN(Cc2ccc(N3CC(c4c(Cl)cccc4Cl)C3)nc2)CC1 [Compound 32]", "EC50": "10 to 100 nM"}
{"compound": "Cc1cc(CN2CCC(C(=O)O)CC2)nc(C)c1C1CN(c2c(Cl)cccc2Cl)C1 [Compound 84]", "EC50": "10 to 100 nM"}
{"compound": "Cc1cc(C2CN(c3c(Cl)cccc3Cl)C2)cc(C)c1CN1CC(C(=O)O)C1 [Compound 59]", "EC50": "≤ 10 nM"}

Q. Identify measured EC50 corresponding to CC(C)c1cc(C2CN(c3c(Cl)cccc3Cl)C2)cc(C(C)C)c1CN1CCC(C(=O)O)CC1 [Compound 53]
A. 100 to 1000 nM

Q. Fill in reported EC50 for this entry: O=C(O)C1CCN(Cc2ccc(C3CN(c4c(Cl)cccc4Cl)C3)cn2)CC1 [Compound 18]
A. 100 to 1000 nM

###

The compounds listed here are annotated with their EC50.
# study-target: S1P5 receptors (Homo sapiens)
# experimental-details: [35S]-GTPγS binding assay with CHO-S1P5 receptor membranes
# recorded-conditions: membranes of CHO cells expressing recombinant S1P5 receptors; measure of S1P5 agonism

{"mol-smiles": "CCc1cc(C2CN(c3c(Cl)cccc3Cl)C2)cc(CC)c1CN1CCC(C(=O)O)CC1", "readout-kind": "EC50", "endpoint-result": "≤ 10 nM"}

Q. Tell me measured EC50 for Cc1cc(C2CN(c3c(F)cccc3F)C2)cc(C)c1CN1CCC(C(=O)O)CC1 please.
A. 10 to 100 nM

Q. Answer with the recorded EC50 of CCc1cc(C2CN(c3c(Cl)cccc3Cl)C2)cc(C)c1CN1CCC(C(=O)O)CC1 only.
A. ≤ 10 nM
